- testedTarget: human Mat2A (Homo sapiens)
- Construct: His6 (N, cleaved yes); TEV protease cleavage site (N, cleaved yes); made in house; host or cells: E. coli BL21 STAR (DE3)
- assay: MESG EnzChek coupled phosphate detection assay (assay 1), Mat2A initial rates
- Type: biochemical
- conditions: variable substrate L-Met; nonsaturating ATP = 0.07 mM; pH 7.5, 22 °C; read-out: inhibition constant Kis (dead-end inhibition)
recordedMetric: Ki (µM)
One number for each entry, in µM.

Entry NC1(C(=O)O)CCCC1 [L-cLeu, L-cycloleucine, reference compound] : reported Ki = ?
160

* * *

- testedTarget: human Mat2A (Homo sapiens, UniProt P31153)
- Construct: His6 (N, cleaved yes); TEV protease cleavage site (N, cleaved yes); made in house; host or cells: E. coli BL21 STAR (DE3)
- Sequence (P31153 whole entry): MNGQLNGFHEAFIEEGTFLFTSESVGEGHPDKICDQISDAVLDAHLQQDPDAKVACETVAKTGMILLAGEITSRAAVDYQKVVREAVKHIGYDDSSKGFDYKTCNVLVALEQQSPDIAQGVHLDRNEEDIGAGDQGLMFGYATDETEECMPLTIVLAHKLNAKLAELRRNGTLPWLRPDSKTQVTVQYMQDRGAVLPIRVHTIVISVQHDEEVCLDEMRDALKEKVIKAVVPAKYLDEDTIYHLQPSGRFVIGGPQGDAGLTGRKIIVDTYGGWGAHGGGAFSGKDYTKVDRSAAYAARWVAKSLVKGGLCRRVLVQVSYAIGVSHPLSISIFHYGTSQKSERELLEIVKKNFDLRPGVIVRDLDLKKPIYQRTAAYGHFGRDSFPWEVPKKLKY
- assay: Isothermal titration calorimetry (ITC) binding to Mat2A
- conditions: ITC, 20 °C; in the presence of 2 mM ATP
- Method: Prior to performing ITC, proteins (approximately 1 mL volume) were dialyzed using D-Tube Dialyzers (Maxi 100–3000 μL, MWCO 6–8 kDa) (Novagen) against 1 L of buffer A for 2–4 h at 4 °C with agitation using a magnetic stirring bar. […] Protein concentrations were determined by A280 using a UV-2550 spectrophotometer. […] Data were analyzed using the MicroCal PEAQ-ITC analysis software supplied by the manufacturer using nonlinear regression with the One Set of Sites model. […]
recordedMetric: Kd

Look up Kd with human Mat2A (Homo sapiens, UniProt P31153) for this compound: NC1(C(=O)O)CCCC1 [L-cLeu, L-cycloleucine, reference compound]
25 µM

* * *

- testedTarget: human Mat2A (Homo sapiens, UniProt P31153)
- Construct: His6 (N, cleaved yes); TEV protease cleavage site (N, cleaved yes); made in house; host or cells: E. coli BL21 STAR (DE3)
- assay: MESG EnzChek coupled phosphate detection assay (assay 1), Mat2A initial rates
- Assay type: biochemical
- conditions: Mat2A only; dissociation constant of enzyme-ATP complex from eq 1; pH 7.5, 22 °C; read-out: Ki(ATP)
recordedMetric: pKi
Answers are plain numbers, as −log10 of the molar value.

Entry Nc1ncnc2c1ncn2[C@@H]1O[C@H](COP(=O)(O)OP(=O)(O)OP(=O)(O)O)[C@@H](O)[C@H]1O [ATP, adenosine 5′-triphosphate] : reported pKi = ?
3.46

* * *

- testedTarget: human Mat2A (Homo sapiens, UniProt P31153)
- Construct: His6 (N, cleaved yes); TEV protease cleavage site (N, cleaved yes); made in house; host or cells: E. coli BL21 STAR (DE3)
- assay: MESG EnzChek coupled phosphate detection assay (assay 1), Mat2A initial rates
- Type: biochemical
- conditions: variable substrate L-Met; saturating ATP 0.5 or 1 mM; pH 7.5, 22 °C; read-out: inhibition constant Kis (product inhibition)
recordedMetric: pKi
Give bare numbers, as −log10 of the molar value.

Entry C[S+](CC[C@H](N)C(=O)[O-])C[C@H]1O[C@@H](n2cnc3c(N)ncnc32)[C@H](O)[C@@H]1O (stereo partly shown) : reported pKi = ?
3.72

* * *

- testedTarget: human Mat2A (Homo sapiens)
- Construct: His6 (N, cleaved yes); TEV protease cleavage site (N, cleaved yes); made in house; host or cells: E. coli BL21 STAR (DE3)
- assay: LC-MS SAM detection assay (assay 2), Mat2A initial rates
- Format: biochemical
- conditions: variable substrate L-Met; saturating ATP 0.5 or 1 mM; pH 7.5, 22 °C; read-out: inhibition constant Kis (product inhibition by phosphate)
recordedMetric: Ki (µM)
One number for each entry, in µM.

Entry O=P(O)(O)O [phosphate, inorganic phosphate] : reported Ki = ?
1580
